Source: patent US8343503B2

system: birch pollen allergic volunteers; test: Skin prick tests (SPT) of allergic patients; conditions: dilution 1:100; 20 volunteers
# key: entry, value: Positive skin reactions (subjects)
Number, no unit, nothing else.

[[record]]
molecule = "AllerT4: SEQ ID NO: 4, aa 2-85 of SEQ ID 9 (Bet v 1) contiguous overlapping peptide (peptide) GVFNYETETTSVIPAARLFKAFILDGDNLFPKVAPQAISSVENIEGNGGPGTIKKISFPEGFPFKYVKDRVDEVDHTNFKYNYS"
measured_attribute = "Positive skin reactions (subjects)"
assay_value = 0


Problem: // returns reported Positive skin reactions (subjects) for input AllerT2: SEQ ID NO: 2, aa 48-118 of SEQ ID 9 (Bet v 1) contiguous overlapping peptide (peptide) NGGPGTIKKISFPEGFPFKYVKDRVDEVDHTNFKYNYSVIEGGPIGDTLEKISNEIKIVATPDGGSILKIS
Solution: 0

Problem: // returns reported Positive skin reactions (subjects) for input AllerT5: SEQ ID NO: 5, aa 65-160 of SEQ ID 9 (Bet v 1) contiguous overlapping peptide (peptide) FKYVKDRVDEVDHTNFKYNYSVIEGGPIGDTLEKISNEIKIVATPDGGSILKISNKYHTKGDHEVKAEQVKASKEMGETLLRAVESYLLAHSDAYN
Solution: 0

Problem: // returns reported Positive skin reactions (subjects) for input r Bet v 1: Purified recombinant Bet v 1, birch pollen major allergen, purchased from BIOMAY; SEQ ID 9, Swissprot P15494 (protein) MGVFNYETETTSVIPAARLFKAFILDGDNLFPKVAPQAISSVENIEGNGGPGTIKKISFPEGFPFKYVKDRVDEVDHTNFKYNYSVIEGGPIGDTLEKISNEIKIVATPDGGSILKISNKYHTKGDHEVKAEQVKASKEMGETLLRAVESYLLAHSDAYN
Solution: 2
